B1: ZNF263 (parent)
chain: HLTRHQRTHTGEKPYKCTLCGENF

variants of: B1; assay: protein stability index of a GFP-peptide fusion (GPS, HEK-293T) (PSI 1-6); higher = more stable; conditions: c terminus: a fixed tail appended;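 further: lentivirally expressed fusions sorted by FACS into six bins by GFP to DsRed ratio, PSI derived from sequencing read proportions per bin multiplied by bin number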
Fulfilled means recorded protein stability index is 3 or above; Not fulfilled means it is below 3.

// below: answered variants
- sequence-variant: "K16N"
  assigned-category: "Not fulfilled"
- sequence-variant: "T8E"
  assigned-category: "Fulfilled"
- sequence-variant: "P14W"
  assigned-category: "Fulfilled"
- sequence-variant: "E12M"
  assigned-category: "Not fulfilled"
- sequence-variant: "K16Q"
  assigned-category: "Fulfilled"
- sequence-variant: "F24P"
  assigned-category: "Fulfilled"

Does protein stability index meet or surpass 3 for `G11M` ?
Not fulfilled

Also check `C20D`
Fulfilled

Next up: `K16T`
Not fulfilled

Try this variant next: `E22K`
Not fulfilled

Try this variant too: `H9D`
Not fulfilled
